target: T1, human vascular endothelial growth factor receptor-2 Fc chimera (KDR-Fc) (human, UniProt P35968 20-764); test: radioactive equilibrium binding, 1 nM KDR-Fc
T1 construct: range 1-764; Purchased from R&D Systems; also called hKDR; human VEGF-R2-Fc; not shown: human IgG1 Fc
T1 sequence (P35968 20-764 limits assumed, change not shown, form in doubt): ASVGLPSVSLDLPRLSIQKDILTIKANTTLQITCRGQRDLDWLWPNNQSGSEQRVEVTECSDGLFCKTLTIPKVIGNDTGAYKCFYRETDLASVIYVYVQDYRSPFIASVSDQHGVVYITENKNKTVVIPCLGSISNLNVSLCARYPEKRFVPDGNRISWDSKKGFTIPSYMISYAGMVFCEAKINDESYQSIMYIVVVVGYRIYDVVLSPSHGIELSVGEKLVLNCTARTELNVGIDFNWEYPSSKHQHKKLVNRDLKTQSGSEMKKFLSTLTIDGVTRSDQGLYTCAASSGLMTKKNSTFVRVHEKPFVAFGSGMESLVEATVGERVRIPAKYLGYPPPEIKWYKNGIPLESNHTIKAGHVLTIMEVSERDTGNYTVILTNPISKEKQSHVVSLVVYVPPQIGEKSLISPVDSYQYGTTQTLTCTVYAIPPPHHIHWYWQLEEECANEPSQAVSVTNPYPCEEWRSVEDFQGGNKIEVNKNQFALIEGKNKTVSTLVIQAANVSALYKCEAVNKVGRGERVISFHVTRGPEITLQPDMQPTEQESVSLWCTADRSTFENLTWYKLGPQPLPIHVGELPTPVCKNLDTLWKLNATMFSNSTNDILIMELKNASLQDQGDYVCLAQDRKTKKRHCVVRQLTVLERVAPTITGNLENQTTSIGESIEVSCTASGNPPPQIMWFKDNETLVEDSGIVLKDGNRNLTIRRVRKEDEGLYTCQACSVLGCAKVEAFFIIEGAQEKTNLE
Parameter measured: Binding to 1 nM KDR, % (%)

{"Binder": "2′DelB11 PR4 (designed binder, in vitro translated) EVVAATPTSLLISWRHPHFPTRYYRITYGETGGNSPVQEFTVPLQPPTATISGLKPGVDYTITVYAVTVGQNDHELMTPISINYRT", "Binding to 1 nM KDR, %, %": 11}
{"Binder": "2H12 PR3 (designed binder, in vitro translated) VSDVPRDLEVVAATPTSLLISWRHPHFPTRYYRITYGETGGNSPVQEFTVPLQPPTATISGLKPGVDYTITVYAVTEGYQNHELSVPISINYRT", "Binding to 1 nM KDR, %, %": 10}
